- Test system: MOLT-4 leukemia
- measurement-description: NCI tumour cell line growth inhibition, 48 h; in the data active = GI50 below about 0.43 µM; inactive = the rest
Please state which outcome applies, choosing from active, inactive

Dear colleague, could you share the recorded outcome for `O=C(/C=C/c1ccco1)c1ccc(Nc2nc(Nc3ccc(F)cc3)nc(Nc3ccc(F)cc3)n2)cc1` when you have a moment?
inactive

Dear colleague, could you share the recorded outcome for `CN=C(N)N/N=C(\C)c1ccc2c(c1)Cc1ccccc1-2` when you have a moment?
active

Dear colleague, could you share the recorded outcome for `Cc1c(Cl)c(C)c(Cc2c(C)c(Cl)c(C)c(Cl)c2O)c(O)c1Cl` when you have a moment?
inactive

Dear colleague, could you share the recorded outcome for `C=C(C)[C@@H]1CC[C@]2(C(=O)NC(C)=O)CC[C@]3(C)[C@H](CC[C@@H]4[C@@]5(C)CCCNC(C)(C)[C@@H]5CC[C@]43C)[C@@H]12` when you have a moment?
inactive

Dear colleague, could you share the recorded outcome for `CCCN1CCC=C(c2ccc(Nc3nc(Nc4ccccc4C(N)=O)c4cc[nH]c4n3)c(C)c2)C1` when you have a moment?
inactive

Dear colleague, could you share the recorded outcome for `O=C(CCCCCCCCC(=O)N/N=C\c1cc(Cl)ccc1O)N/N=C\c1cc(Cl)ccc1O` when you have a moment?
active

Dear colleague, could you share the recorded outcome for `Cc1c(Cl)cccc1NC(=O)c1sc2nc3c(cc2c1N)CCCC3` when you have a moment?
inactive

Dear colleague, could you share the recorded outcome for `CCN(CC)Cc1cc(Nc2c3ccccc3nc3cc(Cl)ccc23)ccc1O` when you have a moment?
inactive

Dear colleague, could you share the recorded outcome for `COc1ccc(C2=Nc3c/c(=C\c4c(O)[nH]c5cc(Cl)ccc45)ccc3=N2)cc1` when you have a moment?
inactive

Dear colleague, could you share the recorded outcome for `Cc1cc2nc3c4ccc(Br)cc4n(CCN(C)C)c3nc2cc1C` when you have a moment?
active

Dear colleague, could you share the recorded outcome for `O=C(/C=C/c1ccc([N+](=O)[O-])cc1)c1cccc(Nc2nc(Nc3ccccc3)nc(Nc3ccccc3)n2)c1` when you have a moment?
inactive
